- Tested on: SSTR2 mutants
- PROTOCOL DETAILS: SSTRs Gi-mediated cAMP inhibition, GloSensor, HEK293, 5 μM forskolin, 15 min room temperature (SSTR2 mutants)
- Assay type: cell-based, human
- RECORDED CONDITIONS: T194H, run 1
METRIC NAME: EC50
Answer shape: numeric part, then the unit.

Task: Specify EC50 for N#Cc1cccc(-c2ccc3ncc(-c4cc(F)cc(F)c4)c(N4CCC(N)CC4)c3c2)c1O and stop.
Result: 123 nM

* * *

- TARGET OR TEST SYSTEM: SSTR3 (Homo sapiens, UniProt P32745)
- Construct: The human full-length SSTRs and mutants were cloned into the pcDNA3.1+ vector; expressed in transfected cells; host or cells: HEK293 (ATCC, CRL-1573)
- Sequence (P32745 whole entry): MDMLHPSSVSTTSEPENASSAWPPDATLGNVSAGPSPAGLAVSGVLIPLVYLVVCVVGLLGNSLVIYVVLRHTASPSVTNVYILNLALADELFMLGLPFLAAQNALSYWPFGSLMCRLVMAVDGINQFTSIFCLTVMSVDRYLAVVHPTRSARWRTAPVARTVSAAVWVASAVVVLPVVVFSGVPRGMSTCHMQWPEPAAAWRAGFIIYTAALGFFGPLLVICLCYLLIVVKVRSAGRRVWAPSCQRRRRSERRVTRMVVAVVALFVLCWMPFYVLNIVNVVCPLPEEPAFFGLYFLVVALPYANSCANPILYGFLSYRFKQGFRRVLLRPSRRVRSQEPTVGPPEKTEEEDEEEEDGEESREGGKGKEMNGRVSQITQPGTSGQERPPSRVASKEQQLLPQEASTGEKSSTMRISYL
- PROTOCOL DETAILS: SSTRs Gi-mediated cAMP inhibition, GloSensor, HEK293 (SSTR3 wild-type)
- Format: cell-based
- RECORDED CONDITIONS: best-fit; SSTR3 WT-1 (M193I set); read-out: EC50
METRIC NAME: pEC50
Bear in mind: pEC50 is minus log10 of a mol/L concentration; give just that figure.

Task: Specify pEC50 for N#Cc1cccc(-c2ccc3ncc(-c4cc(F)cc(F)c4)c(N4CCC(N)CC4)c3c2)c1O and stop.
Result: 7.20
